applied conditions: 293.15 K; 101.33 kPa; Liquid; Cone and plate viscometry
Field: viscosity. Provide a value for each of the molecules that follow.
Give bare numbers, in mPa·s.

The following molecules have reported results that may help.
>>> recorded_value("CCCCCCCCCCCCCC[P+](CCCCCC)(CCCCCC)CCCCCC.N#Cc1nc[n-]c1C#N [trihexyl(tetradecyl)phosphonium 4,5-dicyanoimidazolide]")
754
>>> recorded_value("CCCCCCCCC[P+](CC)(CC)CC.O=[N+]([O-])c1cn[n-]c1 [triethylnonylphosphonium 4-nitropyrazolide]")
409

Please examine the following record next.
Value lookup for viscosity; key = CCCCCCn1cc[n+](C)c1.N#Cc1ccc[n-]1 [1-hexyl-3-methylimidazolium 2-cyanopyrrolide]
355
